- Measurement target: recombinant EsigPBP3
- Test summary: fluorescence competitive binding assay (FCBA) with 1-NPN probe
- Cond: displacement of 1-NPN; 2 µM EsigPBP3 and 2 µM 1-NPN, 20 mM Tris-HCl pH 7.4, ligands 2-24 µM
Readout kind: IC50 (µM)
// note: answer is a bare numeric in µM

Example results:
INSERT INTO results (compound, measurement_target, readout_kind, unit_spec, test_value) VALUES
  ('C=C1CCC2CC1C2(C)C (stereo not drawn) [(−)-β-pinene]', 'recombinant EsigPBP3', 'IC50', 'µM', 4.77),
  ('C=C1C2CCC(C2)C1(C)C (stereo not drawn) [camphene]', 'recombinant EsigPBP3', 'IC50', 'µM', 9.85),
  ('CC1=CC[C@H](C(C)C)C=C1 [α-phellandrene]', 'recombinant EsigPBP3', 'IC50', 'µM', 5.32),
  ('CCc1ccccc1CC [benzene, 1,2-diethyl-]', 'recombinant EsigPBP3', 'IC50', 'µM', 7.19),
  ('CCc1ccc(C(C)=O)cc1 [4-ethylacetophenone]', 'recombinant EsigPBP3', 'IC50', 'µM', 8.26);

From here, focus on the item given below.
Entry under review: CC1=CCC2CC1C2(C)C (stereo not drawn) [(−)-α-pinene] . Reported IC50? 7.85

---

- Measurement target: recombinant EsigPBP3
- Test summary: fluorescence competitive binding assay (FCBA) with 1-NPN probe
- Cond: from IC50 by Ki = [IC50]/(1 + [1-NPN]/K1-NPN); 2 µM EsigPBP3 and 2 µM 1-NPN, pH 7.4
Readout kind: pKi
In plain terms, pKi is the concentration in mol/L turned into minus its base-10 logarithm.

Below, each entry is followed by its recorded pKi result.
INSERT INTO assay_data (compound, test_value) VALUES
  ('CC1=CC[C@H](C(C)C)C=C1', 5.45),
  ('CCc1ccccc1CC', 5.32),
  ('CCc1ccc(C(C)=O)cc1', 5.26),
  ('CC1=CCC2CC1C2(C)C (stereo not drawn) [(−)-α-pinene]', 5.28),
  ('C=C1CCC2CC1C2(C)C (stereo not drawn) [(−)-β-pinene]', 5.49);

Note: attention shifts to another entry.
State the recorded pKi for this entry: C=C1C2CCC(C2)C1(C)C (stereo not drawn) 5.18

---

- Measurement target: recombinant EsigPBP3
- Test summary: fluorescence competitive binding assay (FCBA) with 1-NPN probe
- Cond: displacement of 1-NPN; 2 µM EsigPBP3 and 2 µM 1-NPN, 20 mM Tris-HCl pH 7.4, ligands 2-24 µM
pIC50: −log10 of the molar value.
Readout kind: pIC50

INSERT INTO assay_data (structure_smiles_string, test_value) VALUES
  ('CC(C)(O)c1ccccc1', '< 4.62'),
  ('Cc1cc(C)cc(C)c1', '< 4.62');

Now examine the next entry.
Query: pIC50; subject: `CC12CCC(CC1)C(C)(C)O2` < 4.62

---

- Measurement target: recombinant EsigPBP3
- Test summary: fluorescence competitive binding assay (FCBA) with 1-NPN probe
- Cond: from IC50 by Ki = [IC50]/(1 + [1-NPN]/K1-NPN); 2 µM EsigPBP3 and 2 µM 1-NPN, pH 7.4
pKi: −log10 of the molar value.
Readout kind: pKi

Below: 2 molecules and their reported pKi.
INSERT INTO assay_data (structure_smiles_string, readout_kind, test_value) VALUES
  ('CC12CCC(CC1)C(C)(C)O2', 'pKi', '< 4.79'),
  ('Cc1cc(C)cc(C)c1', 'pKi', '< 4.79');

pKi for `CC(C)(O)c1ccccc1` ? < 4.79
